Measured Galectin 9 Inhibition, % inhibition (maximal) values are reported for all entries that follow.
# Target System: T1, recombinant human TIM-3-Fc fusion protein (huTIM-3-Fc) (human, UniProt Q8TDQ0 22-200)
# T1 construct: range 22-200; Bought from R&D Systems (NS0-derived); Deglycosylated for HDX-MS; also called recombinant human Fc-TIM-3 chimera; TIM-3 IgG1 Fc Chimera; not shown: IgG1 Fc of the bought chimera
# Experiment: competition ELISA on coated Fc-TIM-3, competitor galectin-9
Use % as the unit, but write only the number.

Worked cases, answers included:
TM3B196 (antibody, V domains shown, Mouse-derived variable domains; also called TM3H102/TM3L64) VH: QVQLKESGPGLVAPSQSLSITCTISGFSLTSYGVHWVRQPPGKGLEWLVVIWSDGSTTYNSALKSRLSISKDNSKSQVFLKMNSLQTDDTAMYYCARQANYRYDSAMDYWGQGTSVTVSS VL: DIQMTQSPASLAVSLGQRATISCKASQSVDYDGDSYMNWYQQKPGQPPKLLIYTAANLQSGIPARFSGSGSGTDFTLNIHPVEEEDAATYYCQQSNEDPFTFGSGTKLEIK | 57
TM3B190 (antibody, V domains shown, Mouse-derived variable domains; also called TM3H96/TM3L62) VH: DVQLQESGPGLVKPSQSLSLTCTVTGYSITSDYAWNWIRQFPGNKLEWMGYINYSGRTSYNPSLKSRISITRDTSKNQFFLQLNSVTTEDTATYYCTSGGNFDYWGQGTTLTVSS VL: DIVMTQSPSSMSASLGDRITITCQATQDIVKNLNWYQQKPGKPPSFLIHYVTELAEGVPSRFSGSGSGSDYSLTISNLESEDFADYYCLQFYEFPLTFGAGTKLELK | 60.7
TM3B113 (antibody, V domains shown, also called TM3H65/TM3L12) VH: EVQLLESGGGLVQPGGSLRLSCAASGFTFSDYWMSWVRQAPGKGLEWVSVIKYSGGSKYYADSVKGRFTISRDNSKNTLYLQMNSLRAEDTAVYYCAKELEGVFDYWGQGTLVTVSS VL: EIVLTQSPGTLSLSPGERATLSCRASQSVSNSTLAWYQQKPGQAPRLLIYTASSRATGIPDRFSGSGSGTDFTLTISRLEPEDFAVYYCQQSYTSPWTFGQGTKVEIK | 75.6

Consider the binder TM3B193 (antibody, V domains shown, Mouse-derived variable domains; also called TM3H99/TM3L52) VH: EVQLQQSGAELVKPGASVKLSCTASGFHIKDTYLHWVKQRPEQGLEWIGRIDPTNGNIKYDPKFQGKATITSDTSSNTAYLQLSSLTSEDTAVYYCARPYYGFFDYWGQGTTLTVSS VL: DIVMTQSHKFMSTSVGDRVSITCKASQDVNTAVAWYQQKPGQSPKLLIYSATYRYTGVPDRFTGSGSGTDFTFTISSVQAEDLAVYYCQQHYSTPYTFGSGTKLEIK and give its measured Galectin 9 Inhibition, % inhibition (maximal).
47.4

Consider the binder TM3B189 (antibody, V domains shown, Mouse-derived variable domains; also called TM3H141/TM3L61) VH: EVQLQQSGPELLKPGASVKMSCKASGYTFTSYVMYWVKQKPGQGLEWIGYINPYNDGTKYNEKFKGKATLTSDKSSSTAYMELSRLTSEDSAVYYCTRDDYDVAPFAYWGQGTLVTVSA VL: DIVLTQSPASLAVSLGQRATISCRASESLDSYGNSYIHWYQQKPGQPPKLLIYLASNLESGVPARFSGSGSKTDFTLTIDPVEADDPATYYCQQNNEDPFTFGSGTKLEIK and give its measured Galectin 9 Inhibition, % inhibition (maximal).
76.4
